assay: Elimination half life in rat plasma; type: ADME, organism-based
measured_parameter: half-life

                           sample_smiles  measured_parameter  reported_measurement
0  Cc1ccc2cc(Br)c(C(F)(F)P(=O)(O)O)cc2n1           half-life                 > 8 h

----------
assay: Cmax in mouse plasma at 20 mg/kg, po after 2 hrs; format: ADME, organism-based; design: dose 20 mg/kg, route oral
measured_parameter: Cmax

                              sample_smiles  reported_measurement
0  N#CCc1ccc2cc(Br)c(C(F)(F)P(=O)(O)O)cc2c1                  6 µM

----------
test: Oral bioavailability in Squirrel monkey at 5 mg/kg, iv and 10 mg/kg, po; type: ADME, organism-based, Saimiri sciureus; settings: in vivo
measured_parameter: bioavailability

                             sample_smiles  measured_parameter  reported_measurement
0  N#Cc1ccc2cc(Br)c(C(F)(F)P(=O)(O)O)cc2c1     bioavailability                    2%

----------
assay: Elimination half life in Squirrel monkey at 5 mg/kg, iv and 10 mg/kg, po; type: ADME, organism-based, Saimiri sciureus; conditions: in vivo
measured_parameter: half-life

>>> df
                             sample_smiles  reported_measurement
0  N#Cc1ccc2cc(Br)c(C(F)(F)P(=O)(O)O)cc2c1                > 30 h

----------
test: Drug level in Squirrel monkey at 5 mg/kg, iv and 10 mg/kg, po after 24 hrs; type: ADME, organism-based, Saimiri sciureus; conditions: in vivo, read-out: Drug uptake
measured_parameter: concentration at 24 h

>>> print(df.to_string())
                             sample_smiles  reported_measurement
0  N#Cc1ccc2cc(Br)c(C(F)(F)P(=O)(O)O)cc2c1                 19 µM

----------
assay: Cmax in Squirrel monkey at 5 mg/kg, iv and 10 mg/kg, po; assay type: ADME, organism-based, Saimiri sciureus; settings: in vivo
measured_parameter: Cmax (µM)

                             sample_smiles  measured_parameter  readout_units  reported_measurement
0  N#Cc1ccc2cc(Br)c(C(F)(F)P(=O)(O)O)cc2c1                Cmax             µM                    24

----------
experiment: Cmax in rat at 5 mg/kg, iv and 20 mg/kg, po; type: ADME, organism-based; details: in vivo
measured_parameter: Cmax (µM)

In [3]: df
Out[3]:
                             sample_smiles  reported_measurement
0  N#Cc1ccc2cc(Br)c(C(F)(F)P(=O)(O)O)cc2c1                  75.6

----------
test: Cmax in C57BL/6 mouse plasma at 10 mg/kg; format: ADME, organism-based; parameters: dose 10 mg/kg
measured_parameter: Cmax

>>> print(df.to_string())
                              sample_smiles  reported_measurement
0  NC(=O)c1ccc2cc(Br)c(C(F)(F)P(=O)(O)O)cc2n1                300 nM

----------
assay: Oral bioavailability in rat at 5 mg/kg, iv and 20 mg/kg, po; format: ADME, organism-based; conditions: in vivo
measured_parameter: bioavailability (%)

>>> df
                             sample_smiles  measured_parameter  readout_units  reported_measurement
0  N#Cc1ccc2cc(Br)c(C(F)(F)P(=O)(O)O)cc2c1     bioavailability              %                     4

----------
Target: Tyrosine-protein phosphatase non-receptor type 1 (Homo sapiens)
Sequence (P18031 whole entry): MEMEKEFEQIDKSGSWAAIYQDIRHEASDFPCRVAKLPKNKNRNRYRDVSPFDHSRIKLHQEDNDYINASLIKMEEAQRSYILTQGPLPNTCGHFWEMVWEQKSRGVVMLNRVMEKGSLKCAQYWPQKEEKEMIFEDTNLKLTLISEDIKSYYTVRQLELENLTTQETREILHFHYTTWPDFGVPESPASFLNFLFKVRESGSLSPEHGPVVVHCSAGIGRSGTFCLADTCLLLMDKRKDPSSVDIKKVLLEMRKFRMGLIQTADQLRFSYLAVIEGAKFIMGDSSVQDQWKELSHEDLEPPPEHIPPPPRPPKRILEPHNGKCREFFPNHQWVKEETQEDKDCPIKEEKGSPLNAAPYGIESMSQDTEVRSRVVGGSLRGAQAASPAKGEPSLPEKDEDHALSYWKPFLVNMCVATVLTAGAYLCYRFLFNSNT
Test: Inhibition of PTP1B by fluorescein diphosphate assay
measured_parameter: IC50

>>> print(df.to_string())
                                   molecule  measured_parameter  reported_measurement
0  NC(=O)c1ccc2cc(Br)c(C(F)(F)P(=O)(O)O)cc2n1                IC50                250 nM
1  CNC(=O)c1ccc2cc(Br)c(C(F)(F)P(=O)(O)O)cc2n1                IC50               1260 nM
2  CC(Cc1ccc(C(F)(F)P(=O)(O)O)cc1)(c1ccccc1)n1nnc2ccccc21 (stereo not drawn)                IC50                 16 nM
3  O=P(O)(O)C(F)(F)c1cc2nc(/C=C/c3ccccc3)ccc2cc1Br                IC50                160 nM
4  N#CCc1ccc2cc(Br)c(C(F)(F)P(=O)(O)O)cc2c1                IC50                 90 nM
5     Cc1ccc2cc(Br)c(C(F)(F)P(=O)(O)O)cc2n1                IC50              14000 nM
6  O=C(Nc1cccc(F)c1)c1ccc2cc(Br)c(C(F)(F)P(=O)(O)O)cc2n1                IC50                 27 nM
7  O=C(O)c1cccc(/C=C/c2ccc3cc(Br)c(C(F)(F)P(=O)(O)O)cc3n2)c1                IC50                  7 nM

----------
test: Elimination half life in rat at 5 mg/kg, iv and 20 mg/kg, po; assay type: ADME, organism-based; details: in vivo
measured_parameter: half-life

>>> df
                             sample_smiles  measured_parameter  reported_measurement
0  N#Cc1ccc2cc(Br)c(C(F)(F)P(=O)(O)O)cc2c1           half-life                > 17 h

----------
experiment: Clearance in Squirrel monkey at 5 mg/kg, iv and 10 mg/kg, po; type: ADME, organism-based, Saimiri sciureus; details: in vivo
measured_parameter: clearance

In [3]: df
Out[3]:
                             sample_smiles  measured_parameter  reported_measurement
0  N#Cc1ccc2cc(Br)c(C(F)(F)P(=O)(O)O)cc2c1           clearance           1.2 mL/h/kg

----------
test: Clearance in rat at 5 mg/kg, iv and 20 mg/kg, po; format: ADME, organism-based; conditions: in vivo
measured_parameter: clearance

>>> print(df.to_string())
                             sample_smiles  measured_parameter  reported_measurement
0  N#Cc1ccc2cc(Br)c(C(F)(F)P(=O)(O)O)cc2c1           clearance           1.8 mL/h/kg

----------
experiment: Cmax in DIO mouse at 5 mg/kg, iv and 20 mg/kg, po; assay type: ADME, organism-based; conditions: in vivo
measured_parameter: Cmax (µM)

In [3]: df
Out[3]:
                             sample_smiles  measured_parameter  reported_measurement
0  N#Cc1ccc2cc(Br)c(C(F)(F)P(=O)(O)O)cc2c1                Cmax                  17.4

----------
experiment: Clearance in DIO mouse at 5 mg/kg, iv and 20 mg/kg, po; assay type: ADME, organism-based; conditions: in vivo
measured_parameter: clearance

                             sample_smiles  measured_parameter  reported_measurement
0  N#Cc1ccc2cc(Br)c(C(F)(F)P(=O)(O)O)cc2c1           clearance        0.71 mL/min/kg

----------
assay: Drug level in rat at 5 mg/kg, iv and 20 mg/kg, po after 24 hrs; assay type: ADME, organism-based; conditions: in vivo, read-out: Drug uptake
measured_parameter: concentration at 24 h (µM)

>>> print(df.to_string())
                             sample_smiles     measured_parameter  reported_measurement
0  N#Cc1ccc2cc(Br)c(C(F)(F)P(=O)(O)O)cc2c1  concentration at 24 h                  45.3
